- SYSTEM TESTED: Mycobacterium tuberculosis glutamine synthetase (MtGS) (Mycobacterium tuberculosis, UniProt P9WN39)
- Sequence (P9WN39 whole entry): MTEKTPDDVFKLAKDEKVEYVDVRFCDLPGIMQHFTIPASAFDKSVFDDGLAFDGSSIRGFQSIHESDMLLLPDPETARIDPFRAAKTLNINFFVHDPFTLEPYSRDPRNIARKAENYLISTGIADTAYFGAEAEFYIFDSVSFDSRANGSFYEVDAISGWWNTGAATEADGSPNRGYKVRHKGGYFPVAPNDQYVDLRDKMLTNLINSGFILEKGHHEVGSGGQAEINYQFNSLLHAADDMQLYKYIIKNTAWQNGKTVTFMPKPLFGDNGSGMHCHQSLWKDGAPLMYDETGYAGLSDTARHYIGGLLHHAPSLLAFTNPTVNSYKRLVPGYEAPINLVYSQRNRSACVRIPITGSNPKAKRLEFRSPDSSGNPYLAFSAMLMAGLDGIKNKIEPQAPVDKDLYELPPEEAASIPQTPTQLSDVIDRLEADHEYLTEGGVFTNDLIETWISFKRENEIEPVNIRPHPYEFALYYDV
- PROTOCOL SUMMARY: MtGS inhibition screening and IC50 determination
- Format: biochemical
- CONDITION SET: inhibition screening at 25 μM
REPORTED PROPERTY: inhibitory activity in the MtGS enzymatic assay (in words)

> print(dat)
                                   compound  observed.measurement
1    COc1ccc2cc(-c3nc[nH]c3-c3ccncc3)ccc2c1              inactive
2  COc1ccc2cc(-c3nc(C(C)(C)C)[nH]c3-c3ccnc(N(C)C)c3)ccc2c1 [Compound 11c]              inactive
3  COc1ccc2cc(-c3nc(CO)[nH]c3-c3ccncc3)ccc2c1              inactive
4  COc1ccc2cc(-c3nc(C)[nH]c3-c3ccncc3)ccc2c1              inactive
